species on record: Rattus norvegicus; experiment: DrugMatrix - Regimen: Daily Repeat; type: toxicity, organism-based, Sprague-Dawley; set-up: regimen Daily Repeat, gender Male, age 6-8 weeks; settings: in vivo, po, 0 mg/kg, 72 h, tissue Plasma, route oral GAVAGE, dose level Control, time 3 day, […]
measured-attribute: CHOLESTEROL (mg/dL)
Report as a plain number; the unit mg/dL is understood.

Record excerpt, results attached:
>  <compound>
CN(C)c1nc(N(C)C)nc(N(C)C)n1

>  <CHOLESTEROL (mg/dL)>
75

$$$$
>  <compound>
CC(C)(Oc1ccc(Cl)cc1)C(=O)O

>  <CHOLESTEROL (mg/dL)>
76.17

$$$$

CHOLESTEROL in this record for C[C@@H]1CN(c2c(F)c(N)c3c(=O)c(C(=O)O)cn(C4CC4)c3c2F)C[C@H](C)N1 : 75

CHOLESTEROL in this record for CC(C)C(=O)Nc1ccc([N+](=O)[O-])c(C(F)(F)F)c1 [FLUTAMIDE] : 68.5

CHOLESTEROL in this record for Cc1ccc(-c2cc(C(F)(F)F)nn2-c2ccc(S(N)(=O)=O)cc2)cc1 : 68.67

CHOLESTEROL in this record for O=C(O)CCCc1ccc(N(CCCl)CCCl)cc1 : 68.67

CHOLESTEROL in this record for O=NN(CCCl)C(=O)NC1CCCCC1 : 75

====

species on record: Rattus norvegicus; test: DrugMatrix - Regimen: Daily Repeat; format: toxicity, organism-based, Sprague-Dawley; parameters: regimen Daily Repeat, gender Male, age 6-8 weeks; details: in vivo, po, 0 mg/kg, 72 h, tissue Blood, route oral GAVAGE, dose level Control, time 3 day, […]
measured-attribute: ABSOLUTE SEGMENTED NEUTROPHIL (CELLS/uL)
Report as a plain number; the unit CELLS/uL is understood.

Record excerpt, results attached:
>  <compound>
CCC(C)n1ncn(-c2ccc(N3CCN(c4ccc(OCC5COC(Cn6cncn6)(c6ccc(Cl)cc6Cl)O5)cc4)CC3)cc2)c1=O (centres undefined) [ITRACONAZOLE]

>  <measured-attribute>
ABSOLUTE SEGMENTED NEUTROPHIL

>  <reported-result>
1640.17

$$$$
>  <compound>
CN(C)c1nc(N(C)C)nc(N(C)C)n1 [ALTRETAMINE]

>  <measured-attribute>
ABSOLUTE SEGMENTED NEUTROPHIL

>  <reported-result>
987

$$$$
>  <compound>
C[C@@H]1CN(c2c(F)c(N)c3c(=O)c(C(=O)O)cn(C4CC4)c3c2F)C[C@H](C)N1 [SPARFLOXACIN]

>  <measured-attribute>
ABSOLUTE SEGMENTED NEUTROPHIL

>  <reported-result>
987

$$$$

Query compound follows.
ABSOLUTE SEGMENTED NEUTROPHIL in this record for OC(Cn1cncn1)(Cn1cncn1)c1ccc(F)cc1F [FLUCONAZOLE] : 1640.17

====

A collection of molecules and their measured ABSOLUTE MONOCYTE
species on record: Rattus norvegicus; test: DrugMatrix - Regimen: Daily Repeat; format: toxicity, organism-based, Sprague-Dawley; set-up: regimen Daily Repeat, gender Male, age 6-8 weeks; settings: in vivo, po, 0 mg/kg, 120 h, tissue Blood, route oral GAVAGE, dose level Control, time 5 day, vehicle .5 % CMC
Report as a plain number; the unit CELLS/uL is understood.

ABSOLUTE MONOCYTE in this record for CC(C)(C)NC(=O)[C@@H]1C[C@@H]2CCCC[C@@H]2CN1C[C@@H](O)[C@H](Cc1ccccc1)NC(=O)[C@H](CC(N)=O)NC(=O)c1ccc2ccccc2n1 : 29.17

ABSOLUTE MONOCYTE in this record for ClC(Br)Br : 204.83

ABSOLUTE MONOCYTE in this record for Cc1ccc(/N=C/N(C)/C=N/c2ccc(C)cc2C)c(C)c1 : 32

ABSOLUTE MONOCYTE in this record for CCCN1C[C@H](CSC)C[C@@H]2c3cccc4[nH]cc(c34)C[C@H]21 [PERGOLIDE] : 276

ABSOLUTE MONOCYTE in this record for CN1CCN(CCCN2c3ccccc3Sc3ccc(Cl)cc32)CC1 : 60.5

# credit: ChEMBL document CHEMBL3885881
